Data credit: patent US11376241B2

Molecular target: AhR (Homo sapiens, UniProt P35869)
Construct: The HepG2 CYP1A1-Luc cells do express basal luciferase activity that can be increased via potent AhR agonists or decreased via potent AhR antagonists; endogenous in cells
Sequence (P35869 11-848): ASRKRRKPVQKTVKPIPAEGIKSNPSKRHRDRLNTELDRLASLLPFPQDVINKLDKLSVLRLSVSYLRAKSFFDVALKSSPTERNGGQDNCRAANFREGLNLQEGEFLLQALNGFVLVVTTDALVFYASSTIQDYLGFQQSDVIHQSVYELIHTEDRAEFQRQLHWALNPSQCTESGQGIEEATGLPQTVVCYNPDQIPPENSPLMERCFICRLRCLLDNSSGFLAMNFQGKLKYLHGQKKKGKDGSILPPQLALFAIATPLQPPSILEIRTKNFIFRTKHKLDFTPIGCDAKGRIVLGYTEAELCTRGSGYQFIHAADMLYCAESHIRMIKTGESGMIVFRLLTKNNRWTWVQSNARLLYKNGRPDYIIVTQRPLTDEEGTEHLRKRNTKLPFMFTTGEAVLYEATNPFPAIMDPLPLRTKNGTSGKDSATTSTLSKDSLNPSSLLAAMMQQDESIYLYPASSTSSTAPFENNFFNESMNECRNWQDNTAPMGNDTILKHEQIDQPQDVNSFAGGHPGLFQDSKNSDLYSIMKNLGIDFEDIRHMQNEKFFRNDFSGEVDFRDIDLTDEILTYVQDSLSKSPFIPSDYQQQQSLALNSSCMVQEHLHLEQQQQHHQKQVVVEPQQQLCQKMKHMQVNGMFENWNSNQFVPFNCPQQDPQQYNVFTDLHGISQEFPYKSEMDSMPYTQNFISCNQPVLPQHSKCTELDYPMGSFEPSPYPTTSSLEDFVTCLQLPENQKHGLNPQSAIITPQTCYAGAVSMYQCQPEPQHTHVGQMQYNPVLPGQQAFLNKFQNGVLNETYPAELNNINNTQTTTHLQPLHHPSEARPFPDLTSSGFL
Assay: AhR direct luciferase reporter assay in HepG2 cells (HepG2 CYP1A1-LUC)
Conditions: 18 hours, luciferase activity, no exogenous AhR agonist or 10 nM VAF347, read-out: AhR potency (AhR antagonistic potency, IC50)
pIC50: −log10 of the molar value.
outcome measure: pIC50

The following compounds have reported results that may help.
molecule smiles	outcome measure	test value
Cn1cnnc1C(=O)Nc1cc2[nH]c(-c3ccccc3C(F)F)cc2cn1	pIC50	< 6.00
Cn1ncnc1C(=O)Nc1cc2[nH]c(-c3cc(C#N)ccc3C(F)(F)F)cc2cn1	pIC50	> 7.00

Sure, the documented pIC50 for `Cn1ncnc1C(=O)Nc1cc2[nH]c(-c3cc(C4CC4)ccc3C(F)(F)F)cc2cn1` is > 7.00

Sure, the documented pIC50 for `Cn1ncnc1C(=O)Nc1cc2[nH]c(-c3ccccc3C(F)F)c(F)c2cn1` is > 7.00

Sure, the documented pIC50 for `Cn1ncnc1C(=O)Nc1cc2[nH]c(-c3c(Cl)cccc3Cl)cc2cn1` is 6.00 to 7.00
